Reported IC50 values are given for each entry in this list.
- System Under Test: hTRPA1 (Homo sapiens)
- Sequence (O75762 whole entry): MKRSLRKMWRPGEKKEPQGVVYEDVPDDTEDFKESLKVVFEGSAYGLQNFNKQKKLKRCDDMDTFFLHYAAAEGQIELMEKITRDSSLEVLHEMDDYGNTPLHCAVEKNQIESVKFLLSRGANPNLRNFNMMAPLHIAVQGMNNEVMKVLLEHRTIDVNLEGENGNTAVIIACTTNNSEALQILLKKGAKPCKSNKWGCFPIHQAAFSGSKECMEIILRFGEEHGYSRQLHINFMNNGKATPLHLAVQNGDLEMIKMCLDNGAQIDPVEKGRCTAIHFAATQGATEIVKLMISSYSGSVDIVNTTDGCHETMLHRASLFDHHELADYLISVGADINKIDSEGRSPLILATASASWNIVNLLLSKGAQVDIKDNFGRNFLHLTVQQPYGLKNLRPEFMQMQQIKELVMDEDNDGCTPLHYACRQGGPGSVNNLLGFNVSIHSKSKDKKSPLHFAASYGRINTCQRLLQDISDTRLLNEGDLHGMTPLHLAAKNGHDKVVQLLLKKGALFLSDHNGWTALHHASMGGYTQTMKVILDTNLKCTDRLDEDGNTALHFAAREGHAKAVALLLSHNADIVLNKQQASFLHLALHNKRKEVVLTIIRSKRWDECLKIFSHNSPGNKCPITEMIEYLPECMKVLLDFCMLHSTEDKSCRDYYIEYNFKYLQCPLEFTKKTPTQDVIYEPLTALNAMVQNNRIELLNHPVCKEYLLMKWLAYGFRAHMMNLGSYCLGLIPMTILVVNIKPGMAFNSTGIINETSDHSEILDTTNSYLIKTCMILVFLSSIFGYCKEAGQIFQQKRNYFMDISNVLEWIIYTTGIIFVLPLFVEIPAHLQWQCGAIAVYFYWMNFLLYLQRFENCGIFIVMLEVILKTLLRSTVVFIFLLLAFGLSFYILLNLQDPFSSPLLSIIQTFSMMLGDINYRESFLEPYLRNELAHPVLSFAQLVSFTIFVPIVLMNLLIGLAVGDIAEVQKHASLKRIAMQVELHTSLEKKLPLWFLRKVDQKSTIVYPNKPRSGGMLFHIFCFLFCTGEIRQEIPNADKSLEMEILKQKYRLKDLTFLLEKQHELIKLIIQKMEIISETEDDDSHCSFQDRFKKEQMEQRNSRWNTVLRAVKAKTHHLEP
- Run Description: Dose response calcium flux (FLIPR) assay, ChanTest hTRPA1-CHO stably transfected cell line, cinnamaldehyde agonist
- Test Settings: CHO-K1 Tet-On hTRPA1 Clone 20 cells, 30 min compound preincubation, cinnamaldehyde final 100 uM

> print(dat)
                               input.smiles   result
1  COc1cccc(Cl)c1-c1cc2ccc(NC(=O)C(F)(F)F)cc2[nH]1  0.75 µM
2       COc1cc2cc(-c3c(I)ccnc3OC)[nH]c2cc1N  0.74 µM
3  COc1nccc(I)c1-c1cc2ccc(NC(=O)c3cccc(Cl)c3)cc2[nH]1   2.9 µM
4  COc1nccc(I)c1-c1cc2ccc(NC(=O)C(F)(F)F)cc2[nH]1  0.71 µM
5  COc1nccc(Cl)c1-c1cc2ccc(NC(=O)C(F)(F)F)cc2[nH]1  0.46 µM
6  COc1nccc(Cl)c1-c1cc2ccc(NC(=O)[C@@H]3CCCCN3S(=O)(=O)c3ccc(F)cc3)cc2[nH]1   3.5 µM

Q: Entry `CNc1ccc2cc(-c3c(I)ccnc3OC)[nH]c2c1` , system hTRPA1 (Homo sapiens): what IC50 was measured?
Ans: 5.5 µM

Q: Another compound: `COc1nccc(Cl)c1-c1cc2ccc(NC(=O)c3cccc(Cl)c3)cc2[nH]1`
Ans: 5.6 µM

Q: Another compound: `COc1nccc(I)c1-c1cc2ccc(NC(=O)OC(C)(C)C)cc2[nH]1`
Ans: 4 µM

Q: Another compound: `COc1nccc(I)c1-c1cc2ccc(NC(=O)C(F)F)cc2[nH]1`
Ans: 4.2 µM

Q: Another compound: `COc1nccc(I)c1-c1cc2ccc(N(C)C(C)=O)cc2[nH]1`
Ans: 3.6 µM

Q: Another compound: `COc1nccc(I)c1-c1cc2ccc(N(C)C(=O)C(F)F)cc2[nH]1`
Ans: 3.3 µM

Q: Another compound: `COc1cccc(Cl)c1-c1cc2ccc(N)cc2[nH]1`
Ans: 4.3 µM

FYI, the data here is from patent US9388166B2.
